Source: ChEMBL document CHEMBL1806396

Kindly supply the reported EC50 values for the records listed here.
target: Serine/threonine-protein kinase B-raf (Homo sapiens, UniProt P15056, V600E); assay: Inhibition of B-Raf V600E mutant in human SK-MEL-28 cells assessed as reduction of ERK phosphorylation after 1 hr
Sequence (P15056 2-766 V600E limits assumed): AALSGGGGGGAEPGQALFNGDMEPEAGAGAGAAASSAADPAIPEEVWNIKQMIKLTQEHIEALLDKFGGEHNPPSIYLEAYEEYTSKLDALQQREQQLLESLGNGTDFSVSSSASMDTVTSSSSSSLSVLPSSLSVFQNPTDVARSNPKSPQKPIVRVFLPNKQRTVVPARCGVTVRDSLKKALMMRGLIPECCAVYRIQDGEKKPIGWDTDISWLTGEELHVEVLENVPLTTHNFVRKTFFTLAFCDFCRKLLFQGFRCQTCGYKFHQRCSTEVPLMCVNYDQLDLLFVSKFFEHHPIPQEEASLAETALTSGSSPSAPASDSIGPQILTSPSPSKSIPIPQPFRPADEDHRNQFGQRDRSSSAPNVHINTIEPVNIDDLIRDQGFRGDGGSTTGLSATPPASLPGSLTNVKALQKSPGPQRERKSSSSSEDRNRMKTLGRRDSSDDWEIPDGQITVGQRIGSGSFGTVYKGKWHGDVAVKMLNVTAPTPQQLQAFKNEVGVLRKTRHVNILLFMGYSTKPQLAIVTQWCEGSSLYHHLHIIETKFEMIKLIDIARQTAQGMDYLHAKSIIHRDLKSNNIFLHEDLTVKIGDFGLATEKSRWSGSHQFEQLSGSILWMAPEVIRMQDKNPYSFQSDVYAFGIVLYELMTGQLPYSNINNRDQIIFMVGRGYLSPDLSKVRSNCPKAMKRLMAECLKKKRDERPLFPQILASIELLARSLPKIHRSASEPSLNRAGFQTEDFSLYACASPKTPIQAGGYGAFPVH
Output spec: scalar in nM, unitless text.

Please state recorded EC50 (tested on Serine/threonine-protein kinase B-raf (Homo sapiens, UniProt P15056, V600E)) of `CC(=O)N1CCN(c2ccc(Nc3nccc(-c4sc(C(C)C)nc4-c4cccc(NS(=O)(=O)c5ccccc5)c4)n3)cn2)CC1`
7

Hi! What's the reported EC50 for `CC(=O)N1CCN(c2ccc(Nc3nccc(-c4sc(C(C)C)nc4-c4cccc(NS(=O)(=O)c5c(F)cccc5F)c4)n3)cn2)CC1` on Serine/threonine-protein kinase B-raf (Homo sapiens, UniProt P15056, V600E)?
10

Recall the recorded EC50 for `CC(C)c1nc(-c2cc(F)cc(NS(=O)(=O)c3c(F)cccc3F)c2)c(-c2ccnc(Nc3ccc(N4CCOCC4)nc3)n2)s1` with Serine/threonine-protein kinase B-raf (Homo sapiens, UniProt P15056, V600E) and state it.
24

For the record `CC(=O)N1CCN(c2ccc(Nc3nccc(-c4sc(C(C)C)nc4-c4cccc(NS(=O)(=O)c5ccccc5F)c4)n3)cn2)CC1` , what value of EC50 is listed for Serine/threonine-protein kinase B-raf (Homo sapiens, UniProt P15056, V600E)?
4

Form entry - test system: Serine/threonine-protein kinase B-raf (Homo sapiens, UniProt P15056, V600E); read-out: EC50; compound: `CC(=O)N1CCN(c2ccc(Nc3nccc(-c4sc(C(C)C)nc4-c4cccc(NS(=O)(=O)c5cccc(Cl)c5)c4)n3)cn2)CC1`
21

// map `CC(C)c1nc(-c2cccc(NS(=O)(=O)c3c(F)cccc3F)c2)c(-c2ccnc(Nc3ccc(N4CCOCC4)nc3)n2)s1` to recorded EC50 (system: Serine/threonine-protein kinase B-raf (Homo sapiens, UniProt P15056, V600E))
7

Form field: EC50 recorded for `CC(C)c1nc(-c2cccc(NS(=O)(=O)c3c(F)cccc3F)c2F)c(-c2ccnc(Nc3ccc(N4CCOCC4)nc3)n2)s1` with Serine/threonine-protein kinase B-raf (Homo sapiens, UniProt P15056, V600E) (enter value)
11

What EC50 appears in the records for this compound with Serine/threonine-protein kinase B-raf (Homo sapiens, UniProt P15056, V600E)? `CC(=O)N1CCN(c2ccc(Nc3nccc(-c4sc(C(C)C)nc4-c4cccc(NS(=O)(=O)c5cc(F)ccc5F)c4)n3)cn2)CC1`
8

Recorded EC50 for `CC(C)c1nc(-c2cccc(NC(=O)c3c(F)cccc3F)c2)c(-c2ccnc(Nc3ccc4c(c3)CN(C)CC4)n2)s1` with Serine/threonine-protein kinase B-raf (Homo sapiens, UniProt P15056, V600E), please?
580

Request body: readout EC50, system Serine/threonine-protein kinase B-raf (Homo sapiens, UniProt P15056, V600E), query `CC(C)c1nc(-c2ccc(F)c(NS(=O)(=O)c3c(F)cccc3F)c2)c(-c2ccnc(Nc3ccc(N4CCOCC4)nc3)n2)s1` . Return the value.
23

State its EC50 on Serine/threonine-protein kinase B-raf (Homo sapiens, UniProt P15056, V600E): `CC(=O)N1CCN(c2ccc(Nc3nccc(-c4sc(C(C)C)nc4-c4cccc(NS(=O)(=O)c5ccc(F)cc5)c4)n3)cn2)CC1`
9

====

target: Serine/threonine-protein kinase B-raf (Homo sapiens, UniProt P15056, V600E); test: Inhibition of B-Raf V600E mutant in human SK-MEL-28 cells assessed as reduction of ERK phosphorylation after 1 hr
Assignment: determine reported EC50 for the given compounds.
Number only, in nM; omit the unit.

Report EC50 for `CCc1nc(-c2cccc(N(C)S(=O)(=O)c3ccccc3)c2)c(-c2ccnc(Nc3ccc(N4CCN(C(C)=O)CC4)nc3)n2)s1` tested on Serine/threonine-protein kinase B-raf (Homo sapiens, UniProt P15056, V600E).
4730

I'm curious: which EC50 was measured for `CN1CCc2ccc(Nc3nccc(-c4c(-c5cccc(NS(=O)(=O)c6ccccc6)c5)nc5ccccn45)n3)cc2C1` tested on Serine/threonine-protein kinase B-raf (Homo sapiens, UniProt P15056, V600E)?
99

// lookup EC50 | system=Serine/threonine-protein kinase B-raf (Homo sapiens, UniProt P15056, V600E) | key= `CC(C)c1nc(-c2cccc(NS(=O)(=O)c3ccccc3)c2)c(-c2ccnc(Nc3ccc4c(c3)CN(C)CC4)n2)s1`
52

What reported EC50 corresponds to `CC(=O)N1CCN(c2ccc(Nc3nccc(-c4sc(C(C)C)nc4-c4cccc(NS(=O)(=O)c5cccc(F)c5)c4)n3)cn2)CC1` on Serine/threonine-protein kinase B-raf (Homo sapiens, UniProt P15056, V600E)?
10

====

system: SK-MEL-28; test: Antiproliferative activity against human SK-MEL-28 cells expressing B-Raf V600E mutant after 3 days by CellTiter-Glo assay; format: functional, cell-based; details: Homo sapiens, SK-MEL-28, 72 h
Provide the recorded pEC50 for the entries that follow.
Just so you know, pEC50 here is -log10 of the concentration in molar units; reply with that number alone.

GET /values?readout=pEC50&item= `CN1CCc2ccc(Nc3nccc(-c4c(-c5cccc(NC(=O)Nc6c(F)cccc6F)c5)nc5ccccn45)n3)cc2C1`
5.20

Can you share its pEC50? I mean this compound: `CN1CCc2ccc(Nc3nccc(-c4c(-c5cccc(NS(=O)(=O)c6ccccc6)c5)nc5ccccn45)n3)cc2C1`
5.96

# input compound: `CC(C)c1nc(-c2cccc(NS(=O)(=O)c3c(F)cccc3F)c2F)c(-c2ccnc(Nc3ccc(N4CCOCC4)nc3)n2)s1` ; wanted: its pEC50
8.10

Quick one: pEC50 of `CC(C)c1nc(-c2ccc(F)c(NS(=O)(=O)c3c(F)cccc3F)c2)c(-c2ccnc(Nc3ccc(N4CCOCC4)nc3)n2)s1` ?
7.28

What does the data say about its pEC50? Entry: `CC(=O)N1CCN(c2ccc(Nc3nccc(-c4sc(C(C)C)nc4-c4cccc(NS(=O)(=O)c5ccccc5)c4)n3)cn2)CC1`
7.62

Given the compound `CC(C)c1nc(-c2cc(F)cc(NS(=O)(=O)c3c(F)cccc3F)c2)c(-c2ccnc(Nc3ccc(N4CCOCC4)nc3)n2)s1` , what is its reported pEC50?
7.85

Give its pEC50 value. Item: `CC(=O)N1CCN(c2ccc(Nc3nccc(-c4sc(C(C)C)nc4-c4cccc(NS(=O)(=O)c5cc(F)ccc5F)c4)n3)cn2)CC1`
8.10

====

test system: HFF; assay: Antiproliferative activity against HFF after 3 days by CellTiter-Glo assay; assay type: cell-based; settings: Homo sapiens, 72 h
quantityName: pEC50
// scale note: pEC50 = -log10(conc_M); give the bare number

For the compound shown here, `CC(C)c1nc(-c2ccc(F)c(NS(=O)(=O)c3c(F)cccc3F)c2)c(-c2ccnc(Nc3ccc(N4CCOCC4)nc3)n2)s1` , give the reported pEC50.
4.81

====

test system: SK-MEL-28; test: Antiproliferative activity against human SK-MEL-28 cells expressing B-Raf V600E mutant after 3 days by CellTiter-Glo assay; assay type: functional, cell-based; conditions: Homo sapiens, SK-MEL-28, 72 h
quantityName: pEC50
Lab note — pEC50 values are minus log10 of concentrations in M.

Which pEC50 value belongs to `CC(C)c1nc(-c2cccc(NC(=O)c3c(F)cccc3F)c2)c(-c2ccnc(Nc3ccc4c(c3)CN(C)CC4)n2)s1` ?
5.56

Looking for the measured pEC50 of `CCc1nc(-c2cccc(N(C)S(=O)(=O)c3ccccc3)c2)c(-c2ccnc(Nc3ccc(N4CCN(C(C)=O)CC4)nc3)n2)s1` , can you help?
5.06

For the compound `CCc1nc(-c2cccc(CS(=O)(=O)c3ccccc3)c2)c(-c2ccnc(Nc3ccc(N4CCN(C(C)=O)CC4)nc3)n2)s1` , what pEC50 is on record?
4.96

Using the record for `CC(=O)N1CCN(c2ccc(Nc3nccc(-c4sc(C(C)C)nc4-c4cccc(NS(=O)(=O)c5cccc(Cl)c5)c4)n3)cn2)CC1` , report its pEC50.
7.07

Given `CC(=O)N1CCN(c2ccc(Nc3nccc(-c4sc(C(C)C)nc4-c4cccc(NS(=O)(=O)c5ccccc5F)c4)n3)cn2)CC1` , state its recorded pEC50.
8.40

State the recorded pEC50 for this entry: `CC(=O)N1CCN(c2ccc(Nc3nccc(-c4sc(C(C)C)nc4-c4cccc(NS(=O)(=O)c5cccc(F)c5)c4)n3)cn2)CC1`
8.10

Endpoint output: pEC50 of `CC(=O)N1CCN(c2ccc(Nc3nccc(-c4sc(C(C)C)nc4-c4cccc(NS(=O)(=O)c5c(F)cccc5F)c4)n3)cn2)CC1` . Value?
7.92

====

molecular target: Serine/threonine-protein kinase B-raf (Homo sapiens, UniProt P15056, V600E); assay: Inhibition of B-Raf V600E mutant in human SK-MEL-28 cells assessed as reduction of ERK phosphorylation after 1 hr; type: cell-based
pEC50: −log10 of the molar value.
Give pEC50 for every item shown.

Recorded pEC50 for `CCc1nc(-c2cccc(CS(=O)(=O)c3ccccc3)c2)c(-c2ccnc(Nc3ccc(N4CCN(C(C)=O)CC4)nc3)n2)s1` , please?
< 4.70

Endpoint output: pEC50 of `CN1CCc2ccc(Nc3nccc(-c4c(-c5cccc(NC(=O)c6c(F)cccc6F)c5)nc5ccccn45)n3)cc2C1` . Value?
< 5.00

Look up pEC50: `CN1CCc2ccc(Nc3nccc(-c4c(-c5cccc(C(=O)Nc6c(F)cccc6F)c5)nc5ccccn45)n3)cc2C1`
< 5.66
